Provenance of the data: the MegaScale stability set (Tsuboyama et al. 2023)

B1: 2M8U (parent)
chain: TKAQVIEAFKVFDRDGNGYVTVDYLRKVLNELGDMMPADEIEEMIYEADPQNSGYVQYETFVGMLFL

variants of: B1; experiment: folding stability dG (cDNA display proteolysis); higher = more stable; conditions: PBS, room temperature
Is folding stability dG at least 3 kcal/mol? Then yes (1). If not, no (0).

V28E: no (0)
Y58E: no (0)
A8E: no (0)

Query block: Given `E43R` , state whether its folding stability dG is at least 3 kcal/mol.
Result block: yes (1)

Query block: # repeat for `G63F`
Result block: yes (1)

Query block: Now consider `F61V` .
Result block: yes (1)

Query block: One more variant: `D23C`
Result block: yes (1)

Query block: Can you handle `E31Y` next?
Result block: yes (1)
